one-nucleolus phenotype percent effect: recorded values
# Tested on: MCF10A
# Protocol description: one-nucleolus phenotype percent effect (relative to siNT 0% and siNOL11 100%); higher = more cells with one nucleolus (ribosome biogenesis inhibition)
# Settings: 20 nM; 72 h

See these solved cases before continuing.
ordered_residues="CCAGUGGGGCUGCUGUUAUCUG [hsa-miR-194-3p]" experimental_system=MCF10A reading=-11.8%
ordered_residues="CAAAAGCAAUCGCGGUUUUUGC [hsa-miR-548e-5p]" experimental_system=MCF10A reading=-2.62%
ordered_residues="UAGCAGCACAUCAUGGUUUACA [hsa-miR-15b-5p]" experimental_system=MCF10A reading=26.9%

Input line: Under MCF10A: report one-nucleolus phenotype percent effect of CCAUGAAGCAGUGGGUAGGAGGAC [hsa-miR-8060] .
Output line: 6.65%

Input line: Consider the sequence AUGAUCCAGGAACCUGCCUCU [hsa-miR-640] tested on MCF10A; state its one-nucleolus phenotype percent effect.
Output line: 28.8%

Input line: Look up and report measured one-nucleolus phenotype percent effect (MCF10A) for the following sequence: AUUCUAAUUUCUCCACGUCUUU [hsa-miR-576-5p]
Output line: 1.07%

Input line: State one-nucleolus phenotype percent effect on MCF10A. Entry: GUGGGUAGGGUUUGGGGGAGAGCG [hsa-miR-1229-5p]
Output line: -23.1%

Input line: Report value: one-nucleolus phenotype percent effect, system: MCF10A, sequence: CCCUGGGGUUCUGAGGACAUG [hsa-miR-6852-5p]
Output line: 8.28%

Input line: Give the observed one-nucleolus phenotype percent effect of CUUCUGAUCAAGAUUUGUGGUG [hsa-miR-4762-3p] for MCF10A.
Output line: 18.9%

Input line: Quote MCF10A one-nucleolus phenotype percent effect for entry UGCUUCCUUUCAGAGGGU [hsa-miR-516a-3p] .
Output line: -10.2%

Input line: Provide MCF10A one-nucleolus phenotype percent effect reading for CACAGCAAGUGUAGACAGGCA [hsa-miR-3120-3p] .
Output line: -20.3%

Input line: Tell me one-nucleolus phenotype percent effect of UGAUGGAUAAAAGACUACAUAUU [hsa-miR-3134] when tested on MCF10A.
Output line: 23.3%

Input line: Fill: one-nucleolus phenotype percent effect (MCF10A) for this sequence UGCCUGGAACAUAGUAGGGACU [hsa-miR-3116]
Output line: 2.45%

Input line: Tell me its one-nucleolus phenotype percent effect on MCF10A: GUCCACUUCUGCCUGCCCUGCC [hsa-miR-4436b-5p]
Output line: -10.1%

Input line: GET one-nucleolus phenotype percent effect | system: MCF10A | item: UGCUUCCUUUCAGAGGGU [hsa-miR-516b-3p]
Output line: 8.29%

Input line: Provide one-nucleolus phenotype percent effect, recorded with MCF10A, of AAUAAUAUCACAGUAGGUGU [hsa-miR-5692b]
Output line: -19.9%

Input line: Provide the reported one-nucleolus phenotype percent effect (system: MCF10A) for AAUGCACCUGGGCAAGGAUUCA [hsa-miR-502-3p]
Output line: 0.707%

Input line: Identify measured one-nucleolus phenotype percent effect obtained with MCF10A for AGUGGGGUGGGACCCAGCUGUU [hsa-miR-6742-5p] .
Output line: 43.2%

Input line: Lab note: MCF10A assay, enter one-nucleolus phenotype percent effect for GAGCUUGGUCUGUAGCGGUU [hsa-miR-4453] here
Output line: 33.6%

Input line: System MCF10A. Read-out one-nucleolus phenotype percent effect. Item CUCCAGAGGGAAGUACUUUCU [hsa-miR-520a-5p] . Report value.
Output line: 23.8%

Input line: State measured one-nucleolus phenotype percent effect of the sequence UGAGGAUGGAUAGCAAGGAAGCC [hsa-miR-3605-5p] with MCF10A.
Output line: -3.45%

Input line: Lab note: record one-nucleolus phenotype percent effect of UCUGCCCCCUCCGCUGCUGCCA [hsa-miR-1913] tested on MCF10A.
Output line: -11.1%

Input line: Would you please give the reported one-nucleolus phenotype percent effect of AGAAGUAACUACGGUUUUUGCA [hsa-miR-548ao-5p] with MCF10A?
Output line: -16.5%

Input line: Print MCF10A one-nucleolus phenotype percent effect for UAGGCCACAGCCACCCAUGUGU [hsa-miR-4717-5p] .
Output line: -8.66%
